Source of measurements: patent US8580556B2

Tested on: tetA promoter (PtetA)-lacZ reporter in E. coli KM3
Type: cell-based
Conditions: Table 6, reverse repressor hits; thifensulfuron, same plate assay format as Table 4
Param label: returns 1 when relative β-galactosidase activity, inducer Ts < 1, returns -1 otherwise, including exact equality.

Exam item: Is 1 strictly greater than the molecule's reported relative β-galactosidase activity, inducer Ts? molecule: L1-34: library L1 reverse repressor hit (SEQ ID NO: 1206-1213) (protein, rSuR L1-34) MGSRLDKSKVINSALELLNEVGIEGLTTRKLAQKLGVEQPTLYWHVKNKRALLDALAIEMADRHNTHFCPLEGESWQDFLRNAARSMRCALLSHRDGAKVYLGTARTEKQYETTENVLAFLCQQGFSLENALYAVRAVPRFTLGCVLLDQERQVAKEERETPTTDSMPPLLRQARELTDHQGAEPAFLFGLELIICGLEKQLKCESGS
Marked response: -1

***
Exam item: Is 1 strictly greater than the molecule's reported relative β-galactosidase activity, inducer Ts? molecule: L1-18: library L1 reverse repressor hit (SEQ ID NO: 1206-1213) (protein, rSuR L1-18) MGSRLDKSKVINSALELLNEVGIEGLTTRKLAQKLGVEQPTLYWHVKNKRALLDALAIEMLDRHLTHFCPLEGESWQDFLRNNAKSMRCALLSHRDGAKVWLGTGFTEKQYETKENRLAFLCQQGFSLENALYAIRAVSRFTLGCVLQDQEPQVAKEERETPTTDSMPPLLRQAVELFDHQGAEPAFLFGLELIICGLEKQLKCESES
Marked response: -1

Exam item: Is 1 strictly greater than the molecule's reported relative β-galactosidase activity, inducer Ts? molecule: L1-41: library L1 reverse repressor hit (SEQ ID NO: 1206-1213) (protein, rSuR L1-41) MGSRLDKSKVINSALELLNEVGIEGLTTRKLAQKLGVEQPTLYWHVKNKRALLDALAIEMLDRNQTHFCPLEGESWQDFLRNNAKSWRCALLSHRDGAKVMLGTRNTEKQYETAENGLAFLCQQGFSLENALYACRAVWTFTLGCVLDDQETQVAKEERETPTSDSMPPLLRQAMELKDHQGAEPAFLFGLELIICGLEKQLKCESGS
Marked response: -1

Exam item: Is 1 strictly greater than the molecule's reported relative β-galactosidase activity, inducer Ts? molecule: L1-36: library L1 reverse repressor hit (SEQ ID NO: 1206-1213) (protein, rSuR L1-36) MGSRLDKSKVINSALELLNEVGIEGLTTRKLAQKLGVEQPTLYWHVKNKRALLDALAIEMADRHHTHFCPLEGESWQDFLRNAAKSMRCALLSHRDGAKVRLGTAWTEKQYETHENVLAFLCQQGFSLENALYALKAVSGFTLGCVLKDQEMQVAKEERETPTTDSMPPLLRQATELVDHQGAEPAFLFGLELIICGLEKQLKCESGS
Marked response: 1

Exam item: Is 1 strictly greater than the molecule's reported relative β-galactosidase activity, inducer Ts? molecule: L1-25: library L1 reverse repressor hit (SEQ ID NO: 1206-1213) (protein, rSuR L1-25) MGSRLDKSKVINSALELLNEVGIEGLTTRKLAQKLGVEQPTLYWHVKNKRALLDALAIEMLDRHATHFCPLEGESWQDFLRNTAKSMRCALLSHRDGAKVLLGTATTEKQYETLENLLAFLYQQGFSLENALYAWQAVWRFTLGCVLIDQETQVAKEERETPTTDSMPPLLRQAVELKDHQGAEPAFLFGLELIICGLEKQLKCETGS
Marked response: 1
